Measured GI50, listed per entry for reference.
- System: A498 renal
- experiment: NCI tumour cell line growth inhibition, 48 h

Answered examples (3):
> print(dat)
                                   molecule  measurement.kind     result
1  CN(C)CCCC1(c2ccc(F)cc2)OCc2cc(-c3cccc4[nH]ccc34)ccc21 (centres undefined)              GI50    1.56 µM
2  CCN(CC)Cc1cc(Nc2nc(NC3CCC(N(C)C)CC3)c3ccccc3n2)ccc1OC (centres undefined)              GI50    12.5 µM
3  Cc1cccc(NC(=O)c2sc3nc4c(cc3c2N)C(=O)CCC4)c1              GI50  0.0656 µM

// next item, GI50 requested
Ask: Give me measured GI50, please, for this molecule: O=C(/C=C/C12c3ccccc3C(c3ccccc31)C1C(=O)NC(=O)C12)c1ccccn1 (centres undefined)
Result: 1.66 µM

---

Measured TGI, listed per entry for reference.
- Tested on: M19-MEL melanoma
- experiment: NCI tumour cell line growth inhibition, 48 h

> print(dat)
                                   molecule  measurement.kind    result
1  COC(=O)/C=C(/C(=O)OC)C1(C)c2cc(C(=O)OC)c(C(=O)OC)c(N)c2C(=N)N1c1ccccc1 (stereo not given)               TGI   41.9 µM
2  O=C1NC(=O)c2c1n(Cc1ccccc1)c(=O)n2Cc1ccccc1               TGI  > 100 µM
3  Cc1ccc(S(=O)(=O)OCC/C(=C\[Si](C)(C)C)c2ccccc2)cc1               TGI  > 100 µM
4         O=C1NC2=C(CCCCC/C2=N\O)C12CCCCCC2               TGI  > 100 µM

Ask: Give me measured TGI, please, for this molecule: CCc1cccc(C)c1NC(=O)CCc1nc(=S)[nH][nH]1
Result: > 100 µM

---

- System: HCT-15 colon
- experiment: NCI tumour cell line growth inhibition, 48 h
Measured TGI, listed per entry for reference.

molecule	TGI
O=C(CCc1cc(O)cc(O)c1)NCCc1cc(OCc2ccccc2)cc(OCc2ccccc2)c1	29.8 µM
Cc1cc([N+](=O)[O-])c(C)c2c1[nH]c1ccc(Cl)cc12	> 100 µM
CCOC(=O)CSc1nc(N)c2c(-c3ccccc3)c3c(nc2n1)CCCC3	> 100 µM
COc1ccc2c(N)ncc(C#Cc3cc(C(=O)Nc4ccc(CN5CCN(C)CC5)c(C(F)(F)F)c4)cnc3C)c2c1	0.956 µM
Cc1ccc(O)cc1Nc1ccnc2ccc(S(C)(=O)=O)cc12	> 25 µM

Ask: Give me measured TGI, please, for this molecule: CN(C)C(=O)C(F)(F)C(c1ccc(F)cc1)C1C(=O)N(C)C(=O)N(C)C1=O (stereo not given)
Result: > 100 µM

Ask: Give me measured TGI, please, for this molecule: CCn1cc(C(=O)O)c(=O)c2cc(F)c(N3CCN(S(=O)(=O)c4cccc5ccccc45)CC3)cc21
Result: > 100 µM

Ask: Give me measured TGI, please, for this molecule: Nc1ncnc2c1N=C(c1ccc3c(c1)OCO3)CC(c1ccc(Cl)cc1)N2 (stereo not given)
Result: > 100 µM

Ask: Give me measured TGI, please, for this molecule: O=C(O)c1nc2ccc(C(F)(F)F)cc2[nH]c1=O
Result: > 100 µM

Ask: Give me measured TGI, please, for this molecule: O=C1NC(=N[C@@H](CO)c2ccccc2)S/C1=C\c1ccc2ncccc2c1
Result: > 25 µM

---

- System: HT29 colon
- experiment: NCI tumour cell line growth inhibition, 48 h
measurement.kind: TGI

Answered examples (5):
> print(dat)
                                   compound  assayed.target    result
1     CC(=O)c1ccc(Oc2c3ccccc3nc3ccccc23)cc1      HT29 colon   6.69 µM
2                CCOC(=O)c1nc(C)oc1C(F)(F)F      HT29 colon  > 100 µM
3               O=CC(I)=C(c1ccccc1)c1ccccc1      HT29 colon   29.4 µM
4  O=C(COc1ccc(OCC(=O)N/N=C/c2ccc(-c3ccc(Cl)cc3Cl)o2)c(Cl)c1)N/N=C/c1ccc(-c2ccc(Cl)cc2Cl)o1      HT29 colon  > 100 µM
5  FC(F)(F)Oc1cccc(-c2cc(NCCCCCCNc3cc(-c4cccc(OC(F)(F)F)c4)nc4ccc(N5CCCC5)cc34)c3cc(N4CCCC4)ccc3n2)c1      HT29 colon   4.35 µM

Ask: Please report the measured TGI for Cc1ccc2cccc(-c3cccc4ccccc34)c2n1 tested on HT29 colon.
Result: 76.9 µM

Ask: Please report the measured TGI for CCn1cc(C(=O)O)c(=O)c2cc(F)c(N3CCN(S(=O)(=O)c4cccc5ccccc45)CC3)cc21 tested on HT29 colon.
Result: > 100 µM

Ask: Please report the measured TGI for O=c1ccc2ccc(S)cc2o1 tested on HT29 colon.
Result: > 100 µM

Ask: Please report the measured TGI for Cc1nn(-c2ccc(Cl)cc2)c2ncnc(N/N=C/c3ccccc3O)c12 tested on HT29 colon.
Result: > 100 µM

Ask: Please report the measured TGI for OC1(c2ccc(Cl)c(C(F)(F)F)c2)CCN(CCCC(c2ccc(F)cc2)c2ccc(F)cc2)CC1 tested on HT29 colon.
Result: 1.47 µM

---

- Test system: CCRF-CEM leukemia
- experiment: NCI tumour cell line growth inhibition, 48 h
measurement.kind: TGI

Ask: Give me measured TGI, please, for this compound: CCOC(=O)c1csc(NC(=O)C(C)N2CCCC2)n1 (centres undefined)
Result: > 100 µM

Ask: Give me measured TGI, please, for this compound: CN(C)CCCC1(c2ccc(F)cc2)OCc2cc(-c3cccc4[nH]ccc34)ccc21 (centres undefined)
Result: 3.95 µM

Ask: Give me measured TGI, please, for this compound: CN(C)CCN(c1ccccn1)c1ccccn1
Result: > 100 µM

Ask: Give me measured TGI, please, for this compound: Cc1ccc(-c2cc(-c3ccco3)c(C#N)c(=S)[nH]2)cc1
Result: > 100 µM

Ask: Give me measured TGI, please, for this compound: C[C@@H]1CC[C@@]2(C)C(C(=O)O)=CCCC2[C@@]1(C)CC(=O)c1ccoc1 (some centres undefined)
Result: > 25 µM

Ask: Give me measured TGI, please, for this compound: Cc1nc(N)c(N2CCN(C#N)CC2)c(=O)[nH]1
Result: > 100 µM

Ask: Give me measured TGI, please, for this compound: CCCCI(O)OS(=O)(=O)c1ccc(C)cc1
Result: 76.3 µM

Ask: Give me measured TGI, please, for this compound: COc1cc(CNc2nc3cc(N)cc(N)c3nc2-c2ccccc2)cc(OC)c1
Result: 5.68 µM

---

- System: TK-10 renal
- experiment: NCI tumour cell line growth inhibition, 48 h
measurement.kind: TGI

Answered examples (3):
molecule	TGI
CCOC(=O)CSc1nc(N)c2c(-c3ccccc3)c3c(nc2n1)CCCC3	> 100 µM
CC1CC(N2CCOCC2)=Nc2ccccc2N1C (centres undefined)	> 100 µM
COc1ccc2ccc3oc(=O)c(C)cc3c2c1	> 100 µM

Ask: Give me measured TGI, please, for this molecule: O=C(NC1C(=O)NNC1c1cccc([N+](=O)[O-])c1)c1ccccc1 (centres undefined)
Result: > 100 µM

Ask: Give me measured TGI, please, for this molecule: O=C(c1ccco1)N(C(=O)N1CCCCC1)c1ccccc1
Result: > 100 µM

Ask: Give me measured TGI, please, for this molecule: c1ccc(-c2[nH]ncc2-c2ccnc(-c3ccc(OCCn4ccnc4)cc3)c2)nc1
Result: > 25 µM

Ask: Give me measured TGI, please, for this molecule: COCC([C@@H](O)C(O)C(=O)NCC[C@@H](C)c1nc(/C=C/CC2OC3(C[C@H](O)C2C)OC(C(C[C@H](O)C(C)[C@H](O)C(C)/C=C(C)/C(C)=C/C=C/C(C)=C/C#N)OC)[C@@H](OP(=O)(O)O)C3(C)C)co1)N(C)C (some centres undefined)
Result: 0.00024 µM

Ask: Give me measured TGI, please, for this molecule: CCN=c1sc2c(n1NC(=O)c1cc3ccc1CCc1ccc(cc1)CC3)C(=O)c1ccccc1C2=O
Result: 16.5 µM

Ask: Give me measured TGI, please, for this molecule: O=C1CC(c2ccccc2)Oc2ccccc21 (centres undefined)
Result: > 100 µM

---

- Test system: A549 NSCLC
- experiment: NCI tumour cell line growth inhibition, 48 h
measurement.kind: TGI

Answered examples (5):
> print(dat)
                                   compound  measurement.kind    result
1  COc1cc(CNc2nc3cc(N)cc(N)c3nc2-c2ccccc2)cc(OC)c1               TGI  > 100 µM
2                CCOC(=O)c1nc(C)oc1C(F)(F)F               TGI  > 100 µM
3  CCCCCCCC(=O)OCC(COC(=O)C(C)(C)C)OC(=O)Cc1ccccc1 (centres undefined)               TGI  > 100 µM
4  C[n+]1cc2cc(O)c(O)cc2c2ccc3cc(O)c(O)cc3c21               TGI  > 100 µM
5  CC1(C)OC[C@@H]([C@@]2(CO[Si](c3ccccc3)(c3ccccc3)C(C)(C)C)CC=CC(=O)O2)O1               TGI  > 100 µM

Ask: Give me measured TGI, please, for this compound: COc1cc2ccc3c4cc(OC)c(OC)cc4c[n+](C)c3c2cc1O
Result: > 100 µM

Ask: Give me measured TGI, please, for this compound: O=[N+]([O-])c1ccc(Cl)c2c([N+](=O)[O-])cccc12
Result: > 10 µM

Ask: Give me measured TGI, please, for this compound: c1ccc(-c2[nH]ncc2-c2ccnc(-c3ccc(OCCn4ccnc4)cc3)c2)nc1
Result: > 25 µM

Ask: Give me measured TGI, please, for this compound: CN(C)CCn1c(=O)c2ccc(NCCCN(C)CCCNc3ccc4c(=O)n(CCN(C)C)c(=O)n5c6ccc(O)cc6c(=O)c3c45)c3c(=O)c4cc(O)ccc4n(c1=O)c23
Result: 0.786 µM
